conditions: 376.15 K; Crystal; Transpiration method
measurement-label: vapor or sublimation pressure (kPa)

# compound, data-value
data = [
    ("Cc1cccc(N=C2SCC3CCCN2C3)c1 (centres undefined) [N-(m-tolyl)-3-thia-1-azabicyclo[3.3.1]nonan-2-imine]", 0.0008044),
    ("Cc1ccc(N=C2SCC3CCCN2C3)cc1Cl (centres undefined)", "3.1e-05"),
    ("CCc1ccc(N=C2SCC3CCCN2C3)cc1 (centres undefined) [N-(4-ethylphenyl)-3-thia-1-azabicyclo[3.3.1]nonan-2-imine]", "3.03e-05"),
    ("Clc1ccc(N=C2SCC3CCCN2C3)cc1 (centres undefined) [N-(4-chlorophenyl)-3-thia-1-azabicyclo[3.3.1]nonan-2-imine]", 0.0001659),
]

###

conditions: Crystal; DTA

# compound, Normal melting temperature (°C)
rows = [
    ("Clc1ccc(N=C2SCC3CCCN2C3)cc1 (stereo not given) [N-(4-chlorophenyl)-3-thia-1-azabicyclo[3.3.1]nonan-2-imine]", 138.7),
    ("Cc1ccc(N=C2SCC3CCCN2C3)cc1Cl (stereo not given)", 133.5),
    ("Clc1ccc(N=C2SCC3CCCN2C3)cc1Cl (stereo not given)", 97.8),
    ("Cc1cccc(N=C2SCC3CCCN2C3)c1 (stereo not given) [N-(m-tolyl)-3-thia-1-azabicyclo[3.3.1]nonan-2-imine]", 125.4),
    ("CCc1ccc(N=C2SCC3CCCN2C3)cc1 (stereo not given) [N-(4-ethylphenyl)-3-thia-1-azabicyclo[3.3.1]nonan-2-imine]", 121.5),
]

###

experiment: Molar enthalpy of transition or fusion; details: Crystal; DSC
Known Molar enthalpy of transition or fusion of a selection of compounds
measurement-label: Molar enthalpy of transition or fusion (kcal/mol)

# compound, data-value
data = [
    ("Clc1ccc(N=C2SCC3CCCN2C3)cc1Cl (stereo not given)", 5.62),
    ("CCc1ccc(N=C2SCC3CCCN2C3)cc1 (stereo not given) [N-(4-ethylphenyl)-3-thia-1-azabicyclo[3.3.1]nonan-2-imine]", 3.92),
    ("Cc1ccc(N=C2SCC3CCCN2C3)cc1Cl (stereo not given)", 5.43),
    ("Cc1cccc(N=C2SCC3CCCN2C3)c1 (stereo not given) [N-(m-tolyl)-3-thia-1-azabicyclo[3.3.1]nonan-2-imine]", 6.33),
    ("Clc1ccc(N=C2SCC3CCCN2C3)cc1 (stereo not given) [N-(4-chlorophenyl)-3-thia-1-azabicyclo[3.3.1]nonan-2-imine]", 2.82),
]
